- System: 786-0 renal
- testSummary: NCI tumour cell line growth inhibition, 48 h; in the data active = GI50 below about 0.43 µM; inactive = the rest
Classes used: active, inactive

| compound | assayTarget | cat |
| --- | --- | --- |
| CC[C@]1(O)C[C@@H]2CN(CCc3c([nH]c4ccccc34)[C@@](C(=O)OC)(c3cc4c(cc3OC)N(C)[C@H]3[C@@](O)(C(=O)OC)[C@H](OC(=O)CCCBr)[C@]5(CC)C=CCN6CC[C@]43[C@@H]65)C2)C1 | 786-0 renal | active |
| COc1ccc([C@H]2c3[nH]c4ccccc4c3C[C@H]3C(=O)N(CCCCCCC(=O)NO)CC(=O)N23)cc1 | 786-0 renal | inactive |
| Nc1c([N+](=O)[O-])ncn1C1OC(CO)C(O)C1O (configuration not stated) | 786-0 renal | inactive |
| O=[N+]([O-])/C(=C/C=C/c1ccccc1)c1ccccc1 | 786-0 renal | inactive |
| O=C(Cc1csc2nc(-c3ccc(Br)cc3)cn12)N/N=C/c1ccccc1O | 786-0 renal | inactive |
| CCCCCCC1CCCCN1C(c1ccccc1)C(O)c1ccccc1 (configuration not stated) | 786-0 renal | inactive |
| COc1cc(C(=O)Nc2ccc(-c3nc4ccccc4[nH]3)cc2)cc(OC)c1OC | 786-0 renal | inactive |
| Cc1ncc([N+](=O)[O-])n1CCOc1ccc(C(=O)/C=C/c2ccc(C(F)(F)F)cc2)cc1 | 786-0 renal | inactive |
| COc1ccc2c(c1)CCC1C2CCC2(C)C(NC(=O)CCCCC3CCSS3)CCC12 (configuration not stated) | 786-0 renal | inactive |
| COc1cc(C(=O)/C=C/c2c(C)n([O-])c3ccc(Cl)cc3[n+]2=O)cc(OC)c1OC | 786-0 renal | inactive |
| COc1ccc2cc1Oc1ccc(cc1)CC1c3c(cc(OC)c4c3Oc3cc5c(cc3O4)CCNC5C2)CCN1C (configuration not stated) | 786-0 renal | inactive |
| O=C(Nc1ccc(-n2cc(-c3ccncc3)c(-c3ccc(Cl)c(O)c3)n2)cc1)c1ccc(Cl)c(Cl)c1 | 786-0 renal | inactive |

====

- Test system: NCI/ADR-RES ovarian
- testSummary: NCI tumour cell line growth inhibition, 48 h

| compound | modifierSign | TGI, µM |
| --- | --- | --- |
| O=C(/C=C/c1ccccn1)c1ccccc1 | = | 12.1 |
| OCCN1CCCN(CCCN2c3ccccc3Sc3ccc(C(F)(F)F)cc32)CC1 | = | 14.7 |
| Cn1cc(C2=C(c3cccc([N+](=O)[O-])c3)C(=O)NC2=O)c2ccccc21 | > | 23.1 |
| CC(=O)O[C@H]1C(=O)[C@@]2(C)C([C@H](OC(=O)c3ccccc3)[C@]3(O)C[C@H](OC(=O)[C@H](O)[C@@H](NC(=O)c4ccc(Cl)cc4)c4ccccc4)C(C)=C1C3(C)C)C1(OC(C)=O)CO[C@@H]1C[C@@H]2O (some centres undefined) | = | 25 |

====

- Tested on: SW-620 colon
- testSummary: NCI tumour cell line growth inhibition, 48 h; in the data active means GI50 below about 0.43 µM; inactive means the rest
Classes used: true = active, false = inactive

| molecule | cat |
| --- | --- |
| COC(=O)c1sc(=S)c2sc(C(=O)OC)c(C(=O)OC)c2c1C(=O)OC | false |
| Cc1nc2sc(C(=O)Nc3cccc(Cl)c3)c(N)c2cc1C(O)c1ccccc1 (stereo unspecified) | true |
| CCCCCCC1CCCCN1C(c1ccccc1)C(O)c1ccccc1 (stereo unspecified) | false |
| CC(C)(C)OC(=O)CC(S(=O)(=O)c1ccccc1)S(=O)(=O)c1ccccc1 | false |
| NCC[PH+](c1ccccc1)c1ccccc1.NCC[PH+](c1ccccc1)c1ccccc1.[Cl-].[Pt+4] | false |
| Cn1cc(C2=C(c3cccc([N+](=O)[O-])c3)C(=O)NC2=O)c2ccccc21 | false |
